runDescription: Metabolic stability in Sprague-Dawley rat plasma assessed as radioactive compound remaining after 40 mins
Format: ADME, cell-free
conditionDescription: read-out: Stability
parameter: remaining at 40 min (%)
Please give a number only; it is taken to be in %.

**Q:** Give reported remaining at 40 min value for [11CH3]n1cc(-c2ccncc2)c(-c2ccc(OCc3ccc4ccccc4n3)cc2)n1
**A:** 52.6

* * *

runDescription: Metabolic stability in Sprague-Dawley rat brain assessed as radioactive compound remaining after 2 mins
Format: ADME, tissue-based
conditionDescription: read-out: Stability
parameter: remaining at 2 min
Include the unit right after the number.

**Q:** Give reported remaining at 2 min value for [11CH3]n1cc(-c2ccncc2)c(-c2ccc(OCc3ccc4ccccc4n3)cc2)n1
**A:** 98.7%

* * *

runDescription: Metabolic stability in Sprague-Dawley rat brain assessed as radioactive compound remaining after 40 mins
Type: ADME, tissue-based
conditionDescription: read-out: Stability
parameter: remaining at 40 min (%)
Please give a number only; it is taken to be in %.

**Q:** Give reported remaining at 40 min value for [11CH3]n1cc(-c2ccncc2)c(-c2ccc(OCc3ccc4ccccc4n3)cc2)n1
**A:** 84.7

* * *

runDescription: Metabolic stability in Sprague-Dawley rat plasma assessed as radioactive compound remaining after 60 mins
Format: ADME, cell-free
conditionDescription: read-out: Stability
parameter: remaining at 1 h
Include the unit right after the number.

**Q:** Give reported remaining at 1 h value for [11CH3]n1cc(-c2ccncc2)c(-c2ccc(OCc3ccc4ccccc4n3)cc2)n1
**A:** 49.3%

* * *

runDescription: Metabolic stability in Sprague-Dawley rat brain assessed as radioactive compound remaining after 20 mins
Type: ADME, tissue-based
conditionDescription: read-out: Stability
parameter: remaining at 20 min (%)
Please give a number only; it is taken to be in %.

**Q:** Give reported remaining at 20 min value for [11CH3]n1cc(-c2ccncc2)c(-c2ccc(OCc3ccc4ccccc4n3)cc2)n1
**A:** 94.8
